- System: CEM cells HIV-1 protection, formazan growth assay
- measurement protocol: NCI AIDS Antiviral Assay
- assay context: measured here: growth of uninfected CEM cells
pIC50: −log10 of the molar value.

molecule	pIC50
COc1ccc2nc3cc(Cl)ccc3c(Sc3ccc([N+](=O)[O-])cc3)c2c1	< 5.32
CC(C)(C)Cc1cssc1=S	< 3.70
N#C/C(=C\c1ccc(Cl)cc1)C(=O)c1ccccc1	< 4.08
Cc1cc(NC(=O)Nc2ccc(N=Nc3cc(S(=O)(=O)O)c4cccc(S(=O)(=O)O)c4c3)c(C)c2)ccc1N=Nc1cc(S(=O)(=O)O)c2cccc(S(=O)(=O)O)c2c1	< 4.00
O=C(O)c1cc([N+](=O)[O-])c2c(c1)P(=O)(O)c1cc(C(=O)O)cc([N+](=O)[O-])c1O2	< 3.70
Nc1[nH]c(=O)ncc1F	< 3.70
C[N+]1=C(c2ccc[nH]2)CC(C(=O)[O-])CC1 (centres undefined)	< 3.70
O=C1NC2C=CN(Cc3ccccc3)C=C2C(=O)N2CCCC12 (centres undefined)	< 5.19
CCOC(=O)c1sc(SC)nc1NC(=O)c1ccc(Cl)cc1	< 3.70

====

- Test system: CEM cells HIV-1 protection, formazan growth assay
- measurement protocol: NCI AIDS Antiviral Assay
- assay context: measured here: growth of uninfected CEM cells
Listed next: entries and their corresponding IC50.
reported metric: IC50

compound	test value
CC(C)(C)c1ccc(C2(Br)C(=O)NC(=O)C2=O)cc1 (stereo unspecified)	> 200 µM
COCCOCCOCCOCCOCCOCCOCCOCCOCCOCCOCCOCCOCCOCCOCCOCCOCC(=O)N(CCn1ccc(N)nc1=O)CCn1cnc2nc(N)[nH]c(=O)c21	> 117 µM
CCOC(=O)[C@@H]1ON2O[C@@H](OC3CCCCC3c3ccccc3)C[C@H]3OC(=O)[C@@H]1C32 (stereo partly specified)	> 200 µM
CC(C)OC/N=C(/N)NC#N	> 575 µM
CCn1c(C)nn2c(=O)c3ccccc3nc2c1=O	> 100 µM
N#C/C(=C(\O)c1ccccc1)c1nc2ccccc2[nH]1	> 69.2 µM

====

- Tested on: CEM cells HIV-1 protection, formazan growth assay
- measurement protocol: NCI AIDS Antiviral Assay
- assay context: measured here: growth of uninfected CEM cells

compound	IC50
CC1(O)CC2C(CC1SC1CC3C(CC1(C)O)C3(C)C)C2(C)C (stereo unspecified)	> 200 µM
CC(=O)O[C@H]1CC[C@@]2(C)C(=CC[C@@H]3C2CC[C@@]2(C)C3CC[C@@H]2c2nc(-c3ccccc3)cs2)C1 (stereo partly specified)	> 52.5 µM
CC(C)[C@@]12O[C@@H]1CC13OC1[C@@H](O)CC[C@@]32O (stereo partly specified)	> 200 µM
COc1cc(C(=O)N2CCOCC2)cc(OC)c1OC	> 200 µM
COC(=O)c1ccc(N2CC=C(C)C(c3ccc(OC)cc3)O2)cc1 (stereo unspecified)	> 15.5 µM
COC(=O)c1cc(C)ccc1CC(Cc1cccc(C)c1)C(=O)OC (stereo unspecified)	> 200 µM

====

- System: CEM cells HIV-1 protection, formazan growth assay
- measurement protocol: NCI AIDS Antiviral Assay
- assay context: measured here: growth of uninfected CEM cells
pIC50: −log10 of the molar value.

compound	censoring operator	pIC50
c1cc(-c2nc3sc(-c4ccncc4)nc3s2)ccn1	<	4.61
COc1ccc(C(=O)/C=C/c2cc(C(C)(C)C)c(O)c(C(C)(C)C)c2)cc1	<	5.13
O=C1C2Nc3ccccc3SC2C(=O)N1c1ccc(Br)cc1 (centres undefined)	<	4.72
O=C(O)CSC(NC(=O)C(C(F)(F)F)C(F)(F)F)(C(F)(F)F)C(F)(F)F	<	3.70
O=S(=O)(O)c1cc(N=Nc2c(O)ccc3ccccc23)ccc1/C=C/c1ccc(N=Nc2c(O)ccc3ccccc23)cc1S(=O)(=O)O	<	4.30
N#Cc1cnn2ccn(C3OC(COC(=O)c4ccccc4)C(OC(=O)c4ccccc4)C3OC(=O)c3ccccc3)c12 (centres undefined)	<	3.70
CCN(CC)CCNC(=O)c1nn(-c2ccc(Cl)cc2)c2c1CCc1cc(OC)ccc1-2	=	5.30
COc1ccc(NC(=O)/C(=C\N2C(=O)CC(=O)NC2=S)C(C)=O)cc1	=	4.59
CC(=O)NC1C(OCC(=O)NC(C)C(=O)NC(CCC(=O)NCCCCCNc2ccc([N+](=O)[O-])c3[nH]c4ccccc4c(=O)c23)C(N)=O)C(O)C(CO)OC1(C)OCc1ccccc1 (centres undefined)	=	5.47
[Cl][Ni+2][Cl].[NH-]CCN1CC1	=	4.39
Cc1ccc(S(=O)(=O)NC(=O)NN2CCCCCC2)cc1	<	3.70
O=c1oc2c/c(=C\c3ccc([N+](=O)[O-])cc3)c(=O)c3cccc1c3-2	=	4.51
O=C1NCCCCC1CCCC#Cc1ccccc1 (centres undefined)	=	4.34
OCC(O)c1cc(I)c(Oc2ccc(O)cc2)c(I)c1 (centres undefined)	<	3.70
COC(=O)C1CCCCCCCCCCC12SCCCS2 (centres undefined)	<	3.70
CCOc1ccc(/C=C2/C(=O)N(/C=C3/C(=O)Oc4ccccc4C3=O)C(=NC(C)=O)N2C)cc1	<	3.70
CC(C)(C)C1C=C(Sc2ccccc2)C(=O)O1 (centres undefined)	=	4.67
COc1cc(C[C@@H](C)N)cc(OC)c1	<	3.70
CCOC1CCN(C(=O)c2ccccc2)O1 (centres undefined)	<	3.70
Cc1cccc(NC(=O)/C(=N\N)C(c2cnc3ccc([N+](=O)[O-])cc3n2)[N+](=O)[O-])c1C (centres undefined)	=	4.18
C1CN1c1nc(N2CC2)nc(N2CC2)n1	=	5.98
COc1ccccc1-c1cc(B(O)O)ccc1OC	=	4.39
O=C(Cn1c(C(=O)c2ccccc2)nc2ccccc21)c1ccccc1	=	5.13
CCN1C(NN)=NS(=O)(=O)c2ccccc21	<	3.70
O=C(NC(Cc1c[nH]c2ccccc12)C(=O)O)/C(=C/c1ccccc1O)NC(=O)c1ccccc1 (centres undefined)	<	3.70
CNCCSSCCN	<	3.70
N#C/C(=C\c1ccc(O)c(O)c1)C(=O)NCCCCNC(=O)/C(C#N)=C/c1ccc(O)c(O)c1	=	4.62
O=C(CC(=O)c1cccc2ccccc12)C(=O)Nc1nccs1	<	4.51
CCCCCCCCCC1CC(=O)Oc2cccc(O)c21 (centres undefined)	<	4.60
CCOP(=O)(OCC)/C(C#N)=C/c1cccc(Oc2ccccc2)c1	=	4.52
S=C1CC(c2ccccc2)Sc2cc(Cl)ccc2N1 (centres undefined)	=	5.90
O=C(Cc1cc[n+]([O-])cc1)C(=O)Nc1cc(Cl)c(Cl)cc1Cl	=	3.20
Cc1nc2ccccn2c1N=Nc1ccc(C(=O)NN)cc1	<	4.47
CCCCN(CCCC)c1ccc(/C=C2/C=Cc3ccccc32)cc1	<	4.95
COc1ccc(COC(=O)NNC(=O)C2CSC(c3ccccc3)N2C(C)=O)cc1 (centres undefined)	=	3.76
Clc1ccc(Oc2ccc(N=Cc3ccc(Cl)cc3Cl)cc2Cl)cc1	=	5.27
Cc1nc2ccccc2c(=O)n1-c1nc2ccccc2s1	=	4.50
O=[N+]([O-])c1ccc(N=Nc2ccc(O)c3c(O)cc(S(=O)(=O)O)cc23)cc1S(=O)(=O)O	<	4.00
O=c1[nH]c(=O)n(C2CC(O)C(CO)O2)cc1OS(=O)(=O)C(F)(F)F (centres undefined)	=	5.01

====

- System: CEM cells HIV-1 protection, formazan growth assay
- measurement protocol: NCI AIDS Antiviral Assay;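 active = compounds giving half or more protection of infected cells from virus-caused growth loss, again on retest; inactive = the rest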
Classes used: active, inactive

molecule	tested system	category label
Cc1cc(C)c2c(c1)CC1(Cc3ccc(C)c(C)c3C1=O)C2=O (stereo unspecified)	CEM cells HIV-1 protection, formazan growth assay	inactive
Cc1cc(C)n2nc(N)c(C#N)c2c1C#N	CEM cells HIV-1 protection, formazan growth assay	inactive
O=C(/C=C/c1ccccc1)c1cc(CN2CCOCC2)c(O)c(CN2CCOCC2)c1	CEM cells HIV-1 protection, formazan growth assay	inactive
N#Cc1ccccc1Nc1ccccc1S	CEM cells HIV-1 protection, formazan growth assay	inactive
O=C(O)CCC(NC(=O)c1ccc(Oc2nc3ccccc3nc2C(=O)O)cc1)C(=O)O (stereo unspecified)	CEM cells HIV-1 protection, formazan growth assay	inactive
O=S(=O)(O)c1cc(N=Nc2cc(S(=O)(=O)O)c3cccnc3c2O)ccc1CCc1ccc(N=Nc2cc(S(=O)(=O)O)c3cccnc3c2O)cc1S(=O)(=O)O	CEM cells HIV-1 protection, formazan growth assay	active
O=C1/C(=C/c2cccc([N+](=O)[O-])c2)Cc2ccccc21	CEM cells HIV-1 protection, formazan growth assay	inactive
CC(=O)NC(Cc1cnc[nH]1)C(=O)N1CCCC1C(N)=O (stereo unspecified)	CEM cells HIV-1 protection, formazan growth assay	inactive
CO/N=C(\C(=O)Nc1cncs1)c1csc(N)n1	CEM cells HIV-1 protection, formazan growth assay	inactive
O=C1CCc2cc3c(cc21)CC1(Cc2cc4c(cc2C1)CCCC4)C3	CEM cells HIV-1 protection, formazan growth assay	inactive
CN=C1OC2(c3ccccc3)C3=C(OC(=NC)N2C)C(=O)OC3(c2ccccc2)N1C (stereo unspecified)	CEM cells HIV-1 protection, formazan growth assay	inactive
